System: RAD51 (Homo sapiens)
Protocol: Gel-based D-loop assay
Format: biochemical
Condition Context: Table 1; read-out: D-Loops IC50
pIC50: −log10 of the molar value.

[
  {
    "Smi": "COc1ccc2c(c1)nc(-c1ccc(N(C)C)cc1)c1cccn12",
    "pIC50": 4.89
  }
]

---

System: RAD51 (Homo sapiens)
Sequence (Q06609 1-339): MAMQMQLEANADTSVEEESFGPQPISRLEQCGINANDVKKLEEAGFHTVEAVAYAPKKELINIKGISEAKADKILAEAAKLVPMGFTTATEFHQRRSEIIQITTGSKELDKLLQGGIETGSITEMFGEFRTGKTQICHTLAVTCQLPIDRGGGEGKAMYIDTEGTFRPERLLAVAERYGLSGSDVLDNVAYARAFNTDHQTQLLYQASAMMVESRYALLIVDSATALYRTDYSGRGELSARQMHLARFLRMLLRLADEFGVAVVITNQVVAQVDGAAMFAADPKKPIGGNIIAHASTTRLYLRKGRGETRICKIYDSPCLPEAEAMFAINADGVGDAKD
Protocol: Gel-based D-loop assay
Assay type: biochemical
Condition Context: Table 3

[
  {
    "Compound": "Oc1ccc2c(c1)nc(-c1cccnc1)c1cccn12 [Compound 13b]",
    "Unit String": "%",
    "D-Loops Max inhibition effect": 53
  },
  {
    "Compound": "CN(C)c1ccc(-c2nc3cc(O)ccc3n3cccc23)cc1 [Compound 12g]",
    "Unit String": "%",
    "D-Loops Max inhibition effect": 91
  },
  {
    "Compound": "COc1ccc2c(c1)nc(-c1ccc(N)cc1)c1cccn12 [Compound 12c]",
    "Unit String": "%",
    "D-Loops Max inhibition effect": 100
  },
  {
    "Compound": "COc1ccc2c(c1)nc(-c1cccnc1)c1cccn12 [Compound 13a]",
    "Unit String": "%",
    "D-Loops Max inhibition effect": 74
  },
  {
    "Compound": "COc1ccc2c(c1)nc(-c1ccc(O)cc1)c1cccn12 [Compound 12a]",
    "Unit String": "%",
    "D-Loops Max inhibition effect": 13
  }
]

---

System: RAD51 (Homo sapiens, UniProt Q06609)
Protocol: Fluorescence polarization-based DNA binding assay (RAD51-ssDNA binding)
Assay type: biochemical
Condition Context: Table 3; Stim = stimulator
pIC50: −log10 of the molar value.
Property: pIC50; scope: individual compounds

[
  {
    "Compound": "COc1ccc2c(c1)nc(-c1ccc(O)cc1)c1cccn12 [Compound 12a]",
    "Inequality Symbol": "=",
    "pIC50": 4.46
  },
  {
    "Compound": "O=[N+]([O-])c1ccc(-c2nc3cc(O)ccc3n3cccc23)cc1 [Compound 12e]",
    "Inequality Symbol": "=",
    "pIC50": 4.24
  },
  {
    "Compound": "COc1ccc2c(c1)nc(-c1ccc(N)cc1)c1cccn12 [Compound 12c]",
    "Inequality Symbol": "<",
    "pIC50": 4.00
  },
  {
    "Compound": "Nc1ccc(-c2nc3cc(O)ccc3n3cccc23)cc1 [Compound 12f]",
    "Inequality Symbol": "=",
    "pIC50": 4.01
  },
  {
    "Compound": "Oc1ccc(-c2nc3cc(O)ccc3n3cccc23)cc1 [Compound 12d]",
    "Inequality Symbol": "<",
    "pIC50": 4.00
  },
  {
    "Compound": "Nc1ccc(-c2nc3cc(F)c(F)cc3n3cccc23)cc1 [Compound 12l]",
    "Inequality Symbol": "<",
    "pIC50": 4.00
  },
  {
    "Compound": "Nc1ccc(-c2nc3cc(F)ccc3n3cccc23)cc1 [Compound 12i]",
    "Inequality Symbol": "=",
    "pIC50": 4.09
  }
]
